# Ki per entry for 5-hydroxytryptamine receptor 1A (Homo sapiens, UniProt P08908)

Below are worked cases with known answers.
CC(C)=CCC[C@]1(C)[C@@H](CC=C(C)C)C[C@]2(CC=C(C)C)C(=O)C(CC=C(C)C)C(=O)[C@]1(C(=O)C(C)C)C2=O (some centres undefined)	> 10 µM
O=c1c(O)c(-c2ccc(O)c(O)c2)oc2cc(O)cc(O)c12	> 10 µM
C[C@@H]1O[C@@H](Oc2c(-c3ccc(O)c(O)c3)oc3cc(O)cc(=O)c-3c2O)[C@H](O)[C@H](O)[C@H]1O	> 10 µM

Okay, now this compound:
Need Ki of C[C@@H]1O[C@@H](OC[C@H]2O[C@@H](Oc3c(-c4ccc(O)c(O)c4)oc4cc(O)cc(O)c4c3=O)[C@H](O)[C@@H](O)[C@@H]2O)[C@H](O)[C@H](O)[C@H]1O [3-Rhamnoglucosylquercetin] , thanks. > 10 µM

----------
pKi values for the molecules below.
- Target Or Test System: Muscarinic acetylcholine receptor M5 (Homo sapiens)
- Sequence (P08912 whole entry): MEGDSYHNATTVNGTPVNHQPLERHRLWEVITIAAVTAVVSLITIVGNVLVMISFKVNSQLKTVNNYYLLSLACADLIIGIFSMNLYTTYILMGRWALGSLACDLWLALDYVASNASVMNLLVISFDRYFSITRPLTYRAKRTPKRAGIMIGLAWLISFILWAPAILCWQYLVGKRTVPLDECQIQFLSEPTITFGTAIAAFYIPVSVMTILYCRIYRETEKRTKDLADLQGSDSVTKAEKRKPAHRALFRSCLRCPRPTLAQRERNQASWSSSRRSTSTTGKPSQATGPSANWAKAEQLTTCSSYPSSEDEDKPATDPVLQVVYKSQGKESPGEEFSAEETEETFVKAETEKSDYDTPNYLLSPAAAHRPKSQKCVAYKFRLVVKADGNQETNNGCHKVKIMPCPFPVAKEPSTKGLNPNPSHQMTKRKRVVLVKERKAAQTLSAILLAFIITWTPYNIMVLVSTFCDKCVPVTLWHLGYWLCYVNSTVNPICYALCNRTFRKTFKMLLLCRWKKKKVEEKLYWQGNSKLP
pKi: −log10 of the molar value.

Below are worked cases with known answers.
O=c1c(O)c(-c2ccc(O)c(O)c2)oc2cc(O)cc(O)c12	< 5.00
C[C@@H]1O[C@@H](Oc2c(-c3ccc(O)c(O)c3)oc3cc(O)cc(=O)c-3c2O)[C@H](O)[C@H](O)[C@H]1O	< 5.00

Need pKi of CC(C)=CCC[C@]1(C)[C@@H](CC=C(C)C)C[C@]2(CC=C(C)C)C(=O)C(CC=C(C)C)C(=O)[C@]1(C(=O)C(C)C)C2=O (stereo partly drawn) , thanks. < 5.00

----------
- Target Or Test System: 5-hydroxytryptamine receptor 3A (Homo sapiens)
- Sequence (P46098 whole entry): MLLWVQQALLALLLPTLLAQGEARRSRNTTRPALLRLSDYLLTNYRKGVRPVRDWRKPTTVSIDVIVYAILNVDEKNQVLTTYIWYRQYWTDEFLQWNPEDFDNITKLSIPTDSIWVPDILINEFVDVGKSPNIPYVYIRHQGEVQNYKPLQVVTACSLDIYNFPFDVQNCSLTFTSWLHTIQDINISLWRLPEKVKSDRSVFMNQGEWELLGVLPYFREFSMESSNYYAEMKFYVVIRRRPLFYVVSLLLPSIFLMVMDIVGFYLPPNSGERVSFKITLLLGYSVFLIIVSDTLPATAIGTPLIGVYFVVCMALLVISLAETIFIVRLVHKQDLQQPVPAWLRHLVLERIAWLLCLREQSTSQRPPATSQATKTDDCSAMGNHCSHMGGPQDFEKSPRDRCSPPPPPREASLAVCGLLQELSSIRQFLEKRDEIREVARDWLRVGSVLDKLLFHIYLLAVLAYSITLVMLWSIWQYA
Quantity Name: Ki

O=c1c(O)c(-c2ccc(O)c(O)c2)oc2cc(O)cc(O)c12	> 10 µM
C[C@@H]1O[C@@H](OC[C@H]2O[C@@H](Oc3c(-c4ccc(O)c(O)c4)oc4cc(O)cc(O)c4c3=O)[C@H](O)[C@@H](O)[C@@H]2O)[C@H](O)[C@H](O)[C@H]1O	> 10 µM

Okay, now this compound:
API: value(readout=Ki, system=5-hydroxytryptamine receptor 3A (Homo sapiens)) for record "C[C@@H]1O[C@@H](Oc2c(-c3ccc(O)c(O)c3)oc3cc(O)cc(=O)c-3c2O)[C@H](O)[C@H](O)[C@H]1O" > 10 µM
